system: NCI-H1755; test: relative viability (nuclei count vs DMSO), 5 days (fraction); higher = more cells survive; conditions: first compound 0.8 µM
measured.metric: relative viability
Answer as a number with no unit attached.

Below, each entry is followed by its recorded relative viability result.
compound	relative viability
O=c1cc(-c2cccc3c2Sc2ccccc2S3)oc(N2CCOCC2)c1 + CC1(C)CCC(c2ccc(Cl)cc2)=C(CN2CCN(c3ccc(C(=O)NS(=O)(=O)c4ccc(N[C@H](CCN5CCOCC5)CSc5ccccc5)c(S(=O)(=O)C(F)(F)F)c4)cc3)CC2)C1 [Navitoclax] (partner 0.5 µM)	0.992
COc1nc(C)cnc1NS(=O)(=O)c1cccnc1-c1ccc(-c2nnco2)cc1 [Zibotentan] + Cc1cc(Nc2cc(N3CCN(C)CC3)nc(Sc3ccc(NC(=O)C4CC4)cc3)n2)n[nH]1 [Tozasertib] (partner 0.1 µM)	0.602
O=c1cc(-c2cccc3c2Sc2ccccc2S3)oc(N2CCOCC2)c1 + COc1cccc2cc(-c3nc([C@H]4CC[C@H](C(=O)O)CC4)n4ncnc(N)c34)[nH]c12 [OSI-027] (partner 0.5 µM)	0.682
O=c1cc(-c2cccc3c2Sc2ccccc2S3)oc(N2CCOCC2)c1 + NC(=O)Nc1cc(-c2cccc(F)c2)sc1C(=O)N[C@H]1CCCNC1 [AZD7762] (partner 0.2 µM)	0.439
O=c1cc(-c2cccc3c2Sc2ccccc2S3)oc(N2CCOCC2)c1 + CS(=O)(=O)N1CCN(Cc2cc3nc(-c4cccc5[nH]ncc45)nc(N4CCOCC4)c3s2)CC1 [Pictilisib] (partner 1 µM)	0.481

Report relative viability, nothing else, for this compound: O=c1cc(-c2cccc3c2Sc2ccccc2S3)oc(N2CCOCC2)c1 + Cc1nc(NC(=O)N2CCC[C@H]2C(N)=O)sc1-c1ccnc(C(C)(C)C(F)(F)F)c1 [Alpelisib] (partner 2 µM)
0.945

Look up and state reported relative viability for COc1nc(C)cnc1NS(=O)(=O)c1cccnc1-c1ccc(-c2nnco2)cc1 [Zibotentan] + C[C@]1(O)C[C@@H](c2nc(-c3ccc4ccc(-c5ccccc5)nc4c3)c3c(N)nccn32)C1 [Linsitinib] (partner 1 µM)
1.03

# return recorded relative viability for entry COc1nc(C)cnc1NS(=O)(=O)c1cccnc1-c1ccc(-c2nnco2)cc1 [Zibotentan] + CC(=O)Nc1cccc(-n2c(=O)n(C3CC3)c(=O)c3c(Nc4ccc(I)cc4F)n(C)c(=O)c(C)c32)c1 [Trametinib] (partner 0.02 µM)
0.797

Quick one: give measured relative viability for COc1nc(C)cnc1NS(=O)(=O)c1cccnc1-c1ccc(-c2nnco2)cc1 [Zibotentan] + Nc1ncn([C@H]2C[C@H](O)[C@@H](CO)O2)c(=O)n1 [Decitabine] (partner 2 µM)
0.8

###

tested on: LCLC-103H; test: relative viability (nuclei count vs DMSO), 5 days (fraction); higher = more cells survive; settings: first compound 0.253 µM
measured.metric: relative viability
// no unit, no text: just the number

Examples with their reported relative viability follow.
molecule	relative viability
O=c1cc(-c2cccc3c2Sc2ccccc2S3)oc(N2CCOCC2)c1 + CC(=O)c1c(C)c2cnc(Nc3ccc(N4CCNCC4)cn3)nc2n(C2CCCC2)c1=O [Palbociclib] (partner 0.5 µM)	0.51
O=c1cc(-c2cccc3c2Sc2ccccc2S3)oc(N2CCOCC2)c1 + Cc1cc(Nc2cc(N3CCN(C)CC3)nc(Sc3ccc(NC(=O)C4CC4)cc3)n2)n[nH]1 [Tozasertib] (partner 0.1 µM)	0.502
O=c1cc(-c2cccc3c2Sc2ccccc2S3)oc(N2CCOCC2)c1 + O=C(CCCCCCC(=O)Nc1ccccc1)NO [Vorinostat] (partner 1 µM)	0.814

Look up relative viability of O=c1cc(-c2cccc3c2Sc2ccccc2S3)oc(N2CCOCC2)c1 + CC(C)C[C@H](NC(=O)[C@H](Cc1ccccc1)NC(=O)c1cnccn1)B(O)O [Bortezomib] (partner 0.002 µM) and report it.
1.18

Identify the reported relative viability for the following entry. O=c1cc(-c2cccc3c2Sc2ccccc2S3)oc(N2CCOCC2)c1 + N=C(N)NC(=N)NCCc1ccccc1 [Phenformin] (partner 250 µM)
0.374

Provide only the value of recorded relative viability for COc1nc(C)cnc1NS(=O)(=O)c1cccnc1-c1ccc(-c2nnco2)cc1 [Zibotentan] + CC(C)C[C@H](NC(=O)[C@H](Cc1ccccc1)NC(=O)c1cnccn1)B(O)O [Bortezomib] (partner 0.002 µM)
1

Please list relative viability recorded for the molecule COc1nc(C)cnc1NS(=O)(=O)c1cccnc1-c1ccc(-c2nnco2)cc1 [Zibotentan] + N=C(N)NC(=N)NCCc1ccccc1 [Phenformin] (partner 250 µM)
0.314

Where do these numbers come from? They come from the supplement of paper PMC10307832.
